system.tested: T1, recombinant human regenerating islet-derived protein 1α (REG1A) (human, UniProt P05451 23-166, limits assumed)
T1 construct: also called recombinant human REG1A; recombinant REG1A
T1 sequence (looked up): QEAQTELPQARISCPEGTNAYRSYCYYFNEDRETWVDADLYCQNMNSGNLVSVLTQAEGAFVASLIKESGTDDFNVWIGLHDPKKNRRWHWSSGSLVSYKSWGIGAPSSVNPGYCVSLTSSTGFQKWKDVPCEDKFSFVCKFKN
assay.explanation: sandwich ELISA; capture 21B11D2; REG1A 0 ng/mL (blank)
# Lookup of reported OD value keyed by entry
test.readout: OD value (OD)

[[record]]
binder = "antibody 11D11B11 (antibody, mouse IgG2a, kappa, V domains shown, Mouse monoclonal from hybridoma, stated mouse IgG1/Kappa; Used unlabelled as capture and biotin-labelled as detection antibody; also called 11D11B11-biotin) VH: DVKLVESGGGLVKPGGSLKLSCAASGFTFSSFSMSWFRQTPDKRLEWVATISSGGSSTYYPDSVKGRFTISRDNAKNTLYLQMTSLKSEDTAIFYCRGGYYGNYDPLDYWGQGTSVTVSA VL: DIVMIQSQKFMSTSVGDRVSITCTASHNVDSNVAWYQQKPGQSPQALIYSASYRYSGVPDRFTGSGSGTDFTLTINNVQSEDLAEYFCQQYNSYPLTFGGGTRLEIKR"
measurement = 0.074

[[record]]
binder = "antibody 12F12A10 (antibody, V domains shown, Mouse monoclonal from hybridoma, stated mouse IgG1/Kappa; also called 12F12A10-biotin; Antibody 2) VH: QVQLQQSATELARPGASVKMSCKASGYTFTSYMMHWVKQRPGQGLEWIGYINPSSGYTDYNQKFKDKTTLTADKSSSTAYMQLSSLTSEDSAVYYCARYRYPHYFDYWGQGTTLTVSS VL: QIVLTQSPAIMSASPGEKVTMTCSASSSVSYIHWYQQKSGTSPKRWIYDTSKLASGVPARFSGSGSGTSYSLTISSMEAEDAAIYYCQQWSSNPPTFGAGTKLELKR"
measurement = 0.09

[[record]]
binder = "antibody 4H8F1 (antibody, V domains shown, Mouse monoclonal from hybridoma, stated mouse IgG1/Kappa; also called 4H8F1-biotin; Antibody 1) VH: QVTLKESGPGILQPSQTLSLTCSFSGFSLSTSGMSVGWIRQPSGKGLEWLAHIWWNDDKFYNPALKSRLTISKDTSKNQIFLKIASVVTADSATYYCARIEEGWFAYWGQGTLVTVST VL: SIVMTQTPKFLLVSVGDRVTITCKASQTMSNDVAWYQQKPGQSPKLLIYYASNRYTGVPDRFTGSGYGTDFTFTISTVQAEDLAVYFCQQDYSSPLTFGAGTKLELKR"
measurement = 0.075

[[record]]
binder = "antibody 21B11D2 (antibody, mouse IgG2b, kappa, V domains shown, Mouse monoclonal from hybridoma, stated mouse IgG1/Kappa; Used unlabelled as capture and biotin-labelled as detection antibody; also called 21B11D2-biotin) VH: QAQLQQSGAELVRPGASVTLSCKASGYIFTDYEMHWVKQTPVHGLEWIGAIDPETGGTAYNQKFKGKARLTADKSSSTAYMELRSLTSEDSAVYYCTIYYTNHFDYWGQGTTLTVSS VL: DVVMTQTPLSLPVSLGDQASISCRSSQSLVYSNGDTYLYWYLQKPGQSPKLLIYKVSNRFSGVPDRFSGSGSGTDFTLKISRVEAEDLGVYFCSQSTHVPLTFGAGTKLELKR"
measurement = 0.073


The measurements presented in this section are drawn from patent US20240241135A1.
